Emax by entry:
target: human β3 (Homo sapiens); construct: the full length human β3 gene was obtained from a human genomic library; expressed in transfected cells; host or cells: CHO (Chinese hamster ovary) cells, pcDNA3 vector, geneticin selection; experiment: Human β3-agonist activities: cAMP in CHO cells transfected with human β3 gene; format: cell-based; conditions: CHO; read-out: *Intrinsic Activity (%)

| compound | unit text | Emax |
| --- | --- | --- |
| CS(=O)(=O)N1COc2ccc([C@@H](O)CNCCOc3ccc4c(c3)[nH]c3ccccc34)cc21 | % | 70 |
| CS(=O)(=O)N1CCCOc2ccc([C@@H](O)CNCCOc3ccc4c(c3)[nH]c3ccccc34)cc21 | % | 107 |
| CN(C)S(=O)(=O)n1c(=S)oc2ccc([C@@H](O)CNCCOc3ccc4c(c3)[nH]c3ccccc34)cc21 | % | 99 |
| CS(=O)(=O)N1CCOc2ccc([C@@H](O)CNCCOc3ccc4c(c3)[nH]c3ccccc34)cc21 | % | 69 |

* * *

test: Permeability through human small intestine epithelium (Caco-2 cell layer); conditions: human, Caco-2
measured quantity: Papp A→B (×10⁻⁶ cm/s)

| compound | measured quantity | unit text | number |
| --- | --- | --- | --- |
| CS(=O)(=O)N1CCCOc2ccc([C@@H](O)CNCCOc3ccc4c(c3)[nH]c3ccccc34)cc21 [Example 4] | Papp A→B | ×10⁻⁶ cm/s | 1.93 |
| CS(=O)(=O)N1COc2ccc([C@@H](O)CNCCOc3ccc4c(c3)[nH]c3ccccc34)cc21 [Example 3] | Papp A→B | ×10⁻⁶ cm/s | 1.03 |
| CS(=O)(=O)N1CCOc2ccc([C@@H](O)CNCCOc3ccc4c(c3)[nH]c3ccccc34)cc21 [Example 2] | Papp A→B | ×10⁻⁶ cm/s | 0.93 |

* * *

EC50 by entry:
Target: human β3 (Homo sapiens, UniProt P13945)
Construct: the full length human β3 gene was obtained from a human genomic library
Sequence (P13945 whole entry): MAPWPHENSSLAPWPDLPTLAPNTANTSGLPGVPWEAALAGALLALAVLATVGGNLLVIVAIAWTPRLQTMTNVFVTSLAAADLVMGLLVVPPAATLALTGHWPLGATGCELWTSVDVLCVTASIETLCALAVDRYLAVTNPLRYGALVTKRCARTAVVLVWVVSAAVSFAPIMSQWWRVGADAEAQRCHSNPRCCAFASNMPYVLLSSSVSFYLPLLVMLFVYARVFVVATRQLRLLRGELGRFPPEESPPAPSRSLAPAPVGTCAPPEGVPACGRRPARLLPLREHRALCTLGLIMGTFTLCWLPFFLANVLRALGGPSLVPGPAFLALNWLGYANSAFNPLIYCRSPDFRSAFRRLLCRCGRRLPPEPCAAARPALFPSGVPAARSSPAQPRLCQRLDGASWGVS
Experiment: Human β3-agonist activities: cAMP in CHO cells transfected with human β3 gene
Settings: cAMP, 30 minutes, CHO cells expressing human β3; read-out: ED50 (the source's name)
Method: Human β3-agonist activities were determined using CHO (Chinese hamster ovary) cells transfected with pcDNA3 (mfd. by Invitrogen) to which human β3 gene had been inserted. […] After the cells were cultured for 30 minutes, the medium was removed followed by addition of 0.5 mL of 1 N NaOH. […] The medium was stirred and centrifuged followed by quantitating cAMP with cAMP EIA kit (mfd. by Cayman). […]

| compound | EC50 (µM) |
| --- | --- |
| CN(C)S(=O)(=O)n1c(=S)oc2ccc([C@@H](O)CNCCOc3ccc4c(c3)[nH]c3ccccc34)cc21 [Example 8] | 0.61 |
| CS(=O)(=O)N1COc2ccc([C@@H](O)CNCCOc3ccc4c(c3)[nH]c3ccccc34)cc21 [Example 3] | 0.065 |
| O=c1[nH]c2cc([C@@H](O)CNCCOc3ccc4c(c3)[nH]c3ccccc34)ccc2o1 [Example 10] | 0.17 |
| CN(C)S(=O)(=O)n1c(=O)oc2ccc([C@@H](O)CNCCOc3ccc4c(c3)[nH]c3ccccc34)cc21 [Example 7] | 0.1 |
| CS(=O)(=O)N1CCCOc2ccc([C@@H](O)CNCCOc3ccc4c(c3)[nH]c3ccccc34)cc21 [Example 4] | 0.62 |
| CS(=O)(=O)N1CCOc2ccc([C@@H](O)CNCCOc3ccc4c(c3)[nH]c3ccccc34)cc21 [Example 2] | 0.012 |
